biological target: 5-HT1A serotonin receptor (Rattus norvegicus, UniProt P19327); construct: 44, 1685-1696 (1985); from tissue; assay: 5-HT1A receptor binding, displacement of ^3 H-8-OH DPAT; details: ^3 H-8-OH DPAT; 1 μM
Sequence (P19327 whole entry): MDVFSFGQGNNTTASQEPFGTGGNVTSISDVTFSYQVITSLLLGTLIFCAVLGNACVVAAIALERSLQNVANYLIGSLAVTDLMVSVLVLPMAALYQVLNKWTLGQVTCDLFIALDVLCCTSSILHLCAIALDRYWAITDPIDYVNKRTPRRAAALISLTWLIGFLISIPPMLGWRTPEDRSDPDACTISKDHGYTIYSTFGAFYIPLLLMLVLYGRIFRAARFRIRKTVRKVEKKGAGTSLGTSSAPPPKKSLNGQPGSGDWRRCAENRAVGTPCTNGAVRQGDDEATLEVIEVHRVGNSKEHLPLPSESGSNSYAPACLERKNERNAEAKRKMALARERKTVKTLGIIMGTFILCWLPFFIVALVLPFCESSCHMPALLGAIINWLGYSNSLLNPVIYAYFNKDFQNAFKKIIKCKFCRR
Measured inhibition at 1 µM of individual entries
measured.quantity: inhibition at 1 µM (%)

INSERT INTO measurements (compound_structure, reported_value) VALUES
  ('CC12CC3CC(C1)CC(CC(=O)OCCN1CCN(c4ncccn4)CC1)(C3)C2', 72),
  ('COc1ccccc1N1CCN(CCCOC(=O)C23CC4CC(CC(C4)C2)C3)CC1', 100),
  ('O=C(OCCCN1CCN(c2cccc(Cl)c2)CC1)C12CC3CC(CC(C3)C1)C2', 80),
  ('O=C(OCCN1CCN(c2cccc(Cl)c2)CC1)c1cccc2c1Cc1ccccc1-2', 53),
  ('O=C(OCCN1CCC(=C(c2ccc(F)cc2)c2ccc(F)cc2)CC1)C12CC3CC(CC(C3)C1)C2', 95),
  ('COc1ccccc1N1CCN(CCOC(=O)c2cccc3c2Cc2ccccc2-3)CC1', 100),
  ('O=C(OCCCN1CCN(c2ncccn2)CC1)C12CC3CC(CC(C3)C1)C2', 69);

---

biological target: limbic D2 (dopamine) receptor (Rattus norvegicus); construct: from tissue; rat inferred; experiment: D2 receptor affinity, inhibition of ^3 H-spiroperidol (^3 H-spirohaloperidol) binding to limbic brain tissue
Sequence (P61169 whole entry): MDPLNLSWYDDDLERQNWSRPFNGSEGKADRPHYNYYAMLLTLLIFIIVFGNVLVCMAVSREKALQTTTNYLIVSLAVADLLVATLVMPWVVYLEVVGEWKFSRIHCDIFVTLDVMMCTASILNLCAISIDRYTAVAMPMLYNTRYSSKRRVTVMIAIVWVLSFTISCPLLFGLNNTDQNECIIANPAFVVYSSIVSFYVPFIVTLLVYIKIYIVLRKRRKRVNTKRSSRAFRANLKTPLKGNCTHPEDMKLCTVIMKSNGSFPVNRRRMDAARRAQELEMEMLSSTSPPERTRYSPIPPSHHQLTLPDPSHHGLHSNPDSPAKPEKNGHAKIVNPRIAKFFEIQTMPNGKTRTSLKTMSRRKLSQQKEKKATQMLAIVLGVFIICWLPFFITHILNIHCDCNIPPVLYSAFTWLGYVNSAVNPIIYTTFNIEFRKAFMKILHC
Measured inhibition at 1 µM of individual entries
measured.quantity: inhibition at 1 µM (%)

INSERT INTO results (compound_structure, measured_quantity, reported_value) VALUES
  ('COc1ccccc1N1CCN(CCCOC(=O)C23CC4CC(CC(C4)C2)C3)CC1', 'inhibition at 1 µM', 90),
  ('N#Cc1ccccc1N1CCN(CCOC(=O)C23CC4CC(CC(C4)C2)C3)CC1', 'inhibition at 1 µM', 90),
  ('CC12CC3CC(C1)CC(CC(=O)OCCN1CCC(=C(c4ccc(F)cc4)c4ccc(F)cc4)CC1)(C3)C2', 'inhibition at 1 µM', 36);

---

biological target: limbic D2 (dopamine) receptor (Rattus norvegicus); construct: from tissue; rat inferred; experiment: D2 receptor affinity, inhibition of ^3 H-spiroperidol (^3 H-spirohaloperidol) binding to limbic brain tissue
Measured inhibition at 1 µM of individual entries
measured.quantity: inhibition at 1 µM (%)

INSERT INTO assay_data (compound, measured_quantity, reported_value) VALUES
  ('O=C(OCCN1CCN(c2ncccn2)CC1)C12CC3CC(CC(C3)C1)C2 [Example 2]', 'inhibition at 1 µM', 26),
  ('O=C(OCCCN1CCN(c2cccc(Cl)c2)CC1)C12CC3CC(CC(C3)C1)C2 [Example 1]', 'inhibition at 1 µM', 67),
  ('O=C(OCCN1CCC(=C(c2ccc(F)cc2)c2ccc(F)cc2)CC1)C12CC3CC(CC(C3)C1)C2 [Example 11]', 'inhibition at 1 µM', 100),
  ('O=C(OCCCN1CCN(c2ncccn2)CC1)C12CC3CC(CC(C3)C1)C2 [Example 7]', 'inhibition at 1 µM', 33),
  ('CC12CC3CC(C1)CC(CC(=O)OCCN1CCN(c4ncccn4)CC1)(C3)C2 [Example 4]', 'inhibition at 1 µM', 39);
